List of pKd values.
- target-of-assay: T1, recombinant human Tau monomer, 2N4R isoform (amino acids 2-441) (human, UniProt P10636-8 2-441)
- T1 construct: range 2-441; N-terminal His-tag removed with TEV protease; also called monomeric Tau
- T1 sequence (P10636 other isoform, or with tags, fused parts or gaps limits assumed): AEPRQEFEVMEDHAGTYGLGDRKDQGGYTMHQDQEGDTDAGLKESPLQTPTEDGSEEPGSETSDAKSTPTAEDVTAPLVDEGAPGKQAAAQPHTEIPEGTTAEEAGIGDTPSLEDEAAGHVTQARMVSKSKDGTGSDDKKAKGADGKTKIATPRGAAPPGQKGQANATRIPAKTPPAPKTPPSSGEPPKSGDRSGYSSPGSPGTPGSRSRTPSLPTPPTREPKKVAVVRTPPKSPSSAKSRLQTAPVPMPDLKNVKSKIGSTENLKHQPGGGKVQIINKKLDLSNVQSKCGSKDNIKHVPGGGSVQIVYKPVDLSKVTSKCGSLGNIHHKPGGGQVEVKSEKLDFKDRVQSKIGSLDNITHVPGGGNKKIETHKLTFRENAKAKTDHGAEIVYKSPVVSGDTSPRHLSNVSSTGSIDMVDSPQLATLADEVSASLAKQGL
- experimental-protocol: SPR screen, hIgG captured, Tau monomer analyte
pKd: −log10 of the molar value.
measurement-kind: pKd

binder	value-observed
hu125B11 HC1 + hu113F5-F7 LC2 (antibody, V domains shown) VH: EVQLVESGGGLVQPGGSLRLSCAASRFIFSNYWMNWVRQAPGKGLEWVAQIRLKSDNYATHYAESVKGRFTISRDDSKNTVYLQMNSLRAEDTAVYYCTGGTTYWGQGTLVTVSS VL: DIQMTQSPSSLSASVGDRVTITCKASQNVGTAVAWYQQKPGKAPKLLIYSASRRFSGVPSRFSGSGSGTDFTLTISSLQPEDFATYFCQQFSTYPYTFGQGTKVEIK	7.17
hu125B11 HC1 + hu113F5-F7 LC4 (antibody, V domains shown) VH: EVQLVESGGGLVQPGGSLRLSCAASRFIFSNYWMNWVRQAPGKGLEWVAQIRLKSDNYATHYAESVKGRFTISRDDSKNTVYLQMNSLRAEDTAVYYCTGGTTYWGQGTLVTVSS VL: DIQMTQSPSSLSASVGDRVTITCKASQNVGTAVAWYQQKPGKAPKLLIYSASRRFSGVPSRFSGSGSGTDFTLTISSLQPEDFATYYCQQFSTYPYTFGQGTKVEIK	7.15
hu125B11 HC4 + hu113F5-F7 LC4 (antibody, V domains shown) VH: EVQLVESGGGLVQPGGSLRLSCAASRFIFSNYWMNWVRQAPGKGLEWVAQIRLKSDNYATHYAESVKGRFTISRDNSKNTLYLQMNSLRAEDTAVYYCTGGTTYWGQGTLVTVSS VL: DIQMTQSPSSLSASVGDRVTITCKASQNVGTAVAWYQQKPGKAPKLLIYSASRRFSGVPSRFSGSGSGTDFTLTISSLQPEDFATYYCQQFSTYPYTFGQGTKVEIK	7.29
hu125B11 HC4 + 125B11 LC1 (antibody, V domains shown) VH: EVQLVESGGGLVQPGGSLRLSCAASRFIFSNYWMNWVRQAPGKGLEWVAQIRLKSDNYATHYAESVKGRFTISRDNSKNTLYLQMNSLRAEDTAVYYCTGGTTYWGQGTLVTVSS VL: DIQMTQSPSSLSASVGDRVTITCKASQNVGTAVAWYQQKPGKSPKLLIYSASIRYTGVPSRFSGSGSGTDFTLTISSLQPEDFATYFCQQFRTYPYTFGQGTKVEIK	7.82
hu125B11 HC2 + 125B11 LC2 (antibody, V domains shown) VH: EVQLVESGGGLVQPGGSLRLSCAASRFIFSNYWMNWVRQAPGKGLEWVAQIRLKSDNYATHYAESVKGRFTISRDNSKNTVYLQMNSLRAEDTAVYYCTGGTTYWGQGTLVTVSS VL: DIQMTQSPSSLSASVGDRVTITCKASQNVGTAVAWYQQKPGKAPKLLIYSASIRYTGVPSRFSGSGSGTDFTLTISSLQPEDFATYFCQQFRTYPYTFGQGTKVEIK	7.70

Sourced from patent US20190367592A1
